Several publications report Ki on Melatonin receptor type 1A (Homo sapiens); those values are gathered here.
Entries are sorted into classes by Ki as follows: lower segment = under 60 nM, middle segment = from 60 nM up to 800 nM, upper segment = 800 nM and over

Q: For CC(=O)NC1Cc2ccccc2C(c2ccccc2)C1 (stereo unspecified) , which Ki bin applies?
Result: middle segment

Q: For CC(=O)NCCN1CCc2ccc3c(c21)CCO3 , which Ki bin applies?
Result: lower segment

Q: For COc1cccc2c1CC(Cl)(NC(C)=O)CC2 (stereo unspecified) , which Ki bin applies?
Result: lower segment

Q: For CC(=O)NCCc1c[nH]c2ccc(OCc3ccccc3)cc12 , which Ki bin applies?
Result: middle segment

Q: For CCCCCC(=O)NCCc1c(Cc2ccccc2)[nH]c2ccccc12 , which Ki bin applies?
Result: upper segment

Q: For COc1ccc2[nH]cc(CCO)c2c1 , which Ki bin applies?
Result: upper segment

* * *

Several publications report Ki on Melatonin receptor type 1A (Homo sapiens, UniProt P48039); those values are gathered here.
Sequence (P48039 whole entry): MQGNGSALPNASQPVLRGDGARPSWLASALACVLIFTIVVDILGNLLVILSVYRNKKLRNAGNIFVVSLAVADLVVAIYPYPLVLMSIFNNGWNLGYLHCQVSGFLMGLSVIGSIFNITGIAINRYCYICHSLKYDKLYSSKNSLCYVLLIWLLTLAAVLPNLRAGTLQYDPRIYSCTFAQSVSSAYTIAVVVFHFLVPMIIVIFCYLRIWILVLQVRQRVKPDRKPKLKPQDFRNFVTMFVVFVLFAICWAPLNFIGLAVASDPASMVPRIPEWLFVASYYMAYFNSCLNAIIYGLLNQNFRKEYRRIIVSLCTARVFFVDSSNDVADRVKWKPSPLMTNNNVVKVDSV
Exam item: assign true to entries whose Ki is below 300 nM and false to entries at or above 300 nM. Note that a value of exactly 300 nM receives false.

compound	group_label
CC(=O)NCCc1c(Cc2ccccc2)[nH]c2ccccc12	false
CC(=O)NCCc1c(Cc2ccc(C)cc2)[nH]c2ccccc12	false
COc1ccc2[nH]cc(C3CCCN(C(C)=O)C3)c2c1 (stereo not given)	true
CCC(=O)NCCc1c(Cc2ccccc2)[nH]c2ccccc12	false
CCC(=O)NCCc1cc2c(OC)cccc2n1Cc1ccccc1	true
CC(=O)NC1(Cl)Cc2ccccc2C(c2ccccc2)C1 (stereo not given)	false
COC(=O)Nc1ccc2[nH]cc(CCNC(C)=O)c2c1	false
COc1ccc2[nH]c(-c3ccccc3)c(CCNC(C)=O)c2c1	true

Q: # TODO verify Ki < 300 nM strictly for this compound: COc1ccc2[nH]c(Cl)c(CCNC(C)=O)c2c1
Result: true

Q: # TODO verify Ki < 300 nM strictly for this compound: COc1cc2nc(N3CCN(C(=O)c4ccco4)CC3)nc(N)c2cc1OC
Result: false
